Conditions: in 1,4-dioxane, 318.15 K
Value Kind: solubility (mole fraction)

Smiles Data	Value Kind	Meas Value
Nc1c(Cl)cc([N+](=O)[O-])cc1Cl	solubility (mole fraction)	0.0513

###

Settings: in acetonitrile, 323.15 K
Value Kind: solubility (mole fraction)

Smiles Data	Meas Value
Nc1c(Cl)cc([N+](=O)[O-])cc1Cl	0.00665

###

Details: in isopropanol, 298.15 K

Smiles Data	solubility (mole fraction)
Nc1c(Cl)cc([N+](=O)[O-])cc1Cl	0.00162

###

Conditions: in isopropanol, 283.15 K

Smiles Data	solubility (mole fraction)
Nc1c(Cl)cc([N+](=O)[O-])cc1Cl	0.00093

Origin of values: BigSolDB 2.1
